test.description: OC study 1: EE and LN PK with/without ritlecitinib 200 mg QD
Type: in vivo, human
setup.conditions: female, human, plasma, oral, AUClast, adjusted geometric mean (test), 1 Portia tablet (EE 30 μg and LN 150 μg) on Day 10 of ritlecitinib 200 mg QD × 11 days; plasma; healthy females

sample.smiles	AUC(0-t)
C#C[C@]1(O)CC[C@H]2[C@@H]3CCC4=CC(=O)CC[C@@H]4[C@H]3CC[C@@]21CC	26.8 ng·h/mL

###

test.description: OC study 1: EE and LN PK with/without ritlecitinib 200 mg QD
Format: in vivo, human
setup.conditions: female, human, plasma, oral, AUClast, adjusted geometric mean (reference), 1 Portia tablet (EE 30 μg and LN 150 μg) alone; healthy females

molecule	AUC(0-t) (ng·h/mL)
C#C[C@]1(O)CC[C@H]2[C@@H]3CCC4=CC(=O)CC[C@@H]4[C@H]3CC[C@@]21CC [LN, levonorgestrel]	23.8
